Test system: yeast Saccharomyces cerevisiae X2180-1B
Experiment: Fungicidal activity / MIC at 50° C. versus 30° C., yeast survival in YEPD broth pH 3.4
Assay type: cell-based
Details: Saccharomyces cerevisiae; minimum inhibitory concentration, 50° C.; read-out: MIC50
Experimental: In the table the minimum inhibitory concentration (MIC) is given for each compound as well as the molecular weight (M.W.), the logPoct and a rating of its importance. […] The logPoct, that is the logarithm of the partition coefficient of the relevant compound in octanol and thus a measure of its […], was determined using […]™ software from the CHEMOFFICE ULRA ENHANCED 2000™ software package (version 5.5) that is commercially available from CambridgeSoft. […]
Just a reminder that ties go to no (0): only MIC strictly below 50 mM counts as yes (1).

## Task Item CCCCCCCCCCCC(=O)OCC [Ethyl laurate] : MIC beneath 50 mM, strictly?
## Result no (0)

## Task Find out if reported MIC for CCCCCCCCCCCCCC(=O)OC [Methyl myristate] is less than 50 mM
## Result no (0)

## Task Strictly below 50 mM: is that where MIC of C=CC(C)(CCC=C(C)C)OC(=O)CC (centres unmarked) [Linalyl propionate] sits?
## Result yes (1)

## Task Report whether reported MIC is lower than 50 mM (strictly) for CCCCCCC(=O)OCCCC [Butyl heptanoate]
## Result yes (1)

## Task Check if MIC falls below 50 mM for CCCCCCCCCCOC(=O)CCC [Decyl butyrate] .
## Result no (0)

## Task Is it true that MIC reported for CCCC(=O)OC/C=C(\C)CCC=C(C)C [Geranyl butyrate] is less than 50 mM?
## Result yes (1)

## Task Please check: MIC for CC(C)CCOC(=O)c1ccccc1O [Isoamyl salicylate] , strictly under 50 mM or not?
## Result yes (1)

## Task Strictly below 50 mM in MIC? CCCCCCCCCCCCCC=O
## Result yes (1)

----------
tested on: yeast Saccharomyces cerevisiae X2180-1B; test: Fungicidal activity / MIC at 50° C. versus 30° C., yeast survival in YEPD broth pH 3.4; type: cell-based; conditions: Saccharomyces cerevisiae; minimum inhibitory concentration, 50° C.; read-out: MIC50
measured_property: MIC (mM)
Just the number please, in mM, no unit attached.

## Task Request the reported MIC associated with CCCCCCCCC(=O)OC [Methyl nonanoate]
## Result 2

## Task Reported MIC, compound CCCCCC(=O)OCCC(C)C [Isoamyl hexanoate] : ____
## Result 5

## Task Entry under review: CCCCCCCCCC(=O)OC [Methyl decanoate] . Reported MIC?
## Result 2

## Task I'd like to know its MIC. The compound in question is CCCCCCOC(=O)CCCCC [Hexyl hexanoate]
## Result 30

## Task Quick one: MIC for CCCCCCCCCCCCCCCCO ?
## Result 100

## Task Any idea what its MIC is? The compound is CCCCCCCCCCCC(=O)OC [Methyl laurate]
## Result 40

## Task State the recorded MIC for this entry: CCCCCCCCOC(=O)CCC [Octyl butyrate]
## Result 40

## Task Please report the recorded MIC for C=CCCCCCCCCC(=O)OCCCC [Butyl 10-undecenoate] .
## Result 40

## Task // returns reported MIC for input CCCCCCCC(=O)OCCCCCC [Hexyl octanoate]
## Result 10

## Task MIC lookup needed for CC(=O)OC/C=C(\C)CCC=C(C)C [Geranyl acetate] , thanks.
## Result 1

## Task MIC for CCCCCCCCC(=O)OCC [Ethyl nonanoate] ?
## Result 10

## Task Entry under review: C=CCOC(=O)CCC1CCCCC1 [Allyl cyclohexanepropionate] . Reported MIC?
## Result 1

----------
tested on: yeast Saccharomyces cerevisiae X2180-1B; test: Fungicidal activity / MIC at 50° C. versus 30° C., yeast survival in YEPD broth pH 3.4; assay type: cell-based; conditions: Saccharomyces cerevisiae; minimum inhibitory concentration, 50° C.; read-out: MIC50
measured_property: MIC (mM)
A number alone suffices; assume mM.

## Task Please provide the recorded MIC for CCCCCCCC(=O)OCCc1ccccc1 [Phenethyl octanoate] , tested on yeast Saccharomyces cerevisiae X2180-1B.
## Result 40

## Task Item CCCCCCCOC(=O)CCC [Heptyl butyrate] with yeast Saccharomyces cerevisiae X2180-1B - MIC?
## Result 2

## Task Form: Entry = CCCCCCCCCCCCCCCO | System = yeast Saccharomyces cerevisiae X2180-1B | MIC = ____
## Result 75

## Task Quick check: MIC on yeast Saccharomyces cerevisiae X2180-1B, item CCCCCCCCCOC(C)=O [Nonyl acetate] ?
## Result 5

## Task Write down the reported MIC of CCCCCCCCCCOC(C)=O [Decyl acetate] , test system: yeast Saccharomyces cerevisiae X2180-1B.
## Result 1

## Task What value of MIC on yeast Saccharomyces cerevisiae X2180-1B does CC(=O)OC1CC2CCC1(C)C2(C)C (stereo not drawn) [Bornyl acetate] have?
## Result 2

## Task Hello, I am looking for reported MIC with yeast Saccharomyces cerevisiae X2180-1B for CCC(=O)OC/C=C(\C)CCC=C(C)C [Geranyl propionate] . Could you help?
## Result 12

## Task Fill in the recorded MIC for this molecule, with yeast Saccharomyces cerevisiae X2180-1B as test system: C=CC(C)(O)CCC=C(C)CCC=C(C)C (stereo not drawn)
## Result 1.5

## Task Provide the documented MIC with yeast Saccharomyces cerevisiae X2180-1B as the system for CCCCCCCCCCCCCCO
## Result 50

## Task # query: MIC | item CCCCCCCCCCCCC(=O)O | system: yeast Saccharomyces cerevisiae X2180-1B
## Result 0.2

## Task State its MIC on yeast Saccharomyces cerevisiae X2180-1B: CCCCCCCCCCCCCC(=O)O
## Result 50

----------
Can you tell me MIC for the items I'm about to list?
Tested on: yeast Saccharomyces cerevisiae X2180-1B
Assay: Fungicidal activity / MIC at 50° C. versus 30° C., yeast survival in YEPD broth pH 3.4
Format: cell-based
Conditions: Saccharomyces cerevisiae; minimum inhibitory concentration, 50° C.; read-out: MIC50
Procedure: In the table the minimum inhibitory concentration (MIC) is given for each compound as well as the molecular weight (M.W.), the logPoct and a rating of its importance. […] The logPoct, that is the logarithm of the partition coefficient of the relevant compound in octanol and thus a measure of its […], was determined using […]™ software from the CHEMOFFICE ULRA ENHANCED 2000™ software package (version 5.5) that is commercially available from CambridgeSoft. […]
The reply should contain only the number, in mM.

## Task Recorded MIC of CCCCCCCC=CC(=O)OCC [Ethyl 2-decenoate] , please.
## Result 1

## Task Which MIC is reported for this molecule? CCCCCCCCCCCCC=O [Tridecanal]
## Result 5

## Task Which MIC is listed for C=CCCCCCCCCC(=O)OCC [Ethyl 10-undecenoate] ?
## Result 50

## Task Give the measured MIC of CC(C)=CCC/C(C)=C\COC(=O)C(C)C [Neryl isobutyrate] .
## Result 30

----------
Can you tell me MIC for the items I'm about to list?
test system: yeast Saccharomyces cerevisiae X2180-1B; test: Fungicidal activity / MIC at 50° C. versus 30° C., yeast survival in YEPD broth pH 3.4; type: cell-based; details: Saccharomyces cerevisiae; minimum inhibitory concentration, 50° C.; read-out: MIC50
Use mM as the unit, but write only the number.

## Task What value of MIC has been recorded for this entry: CCCCCCCCCCCCOC(C)=O [Lauryl acetate]
## Result 40

## Task Which MIC value belongs to O=C(OCc1ccccc1)c1ccccc1O [Benzyl salicylate] ?
## Result 50

## Task Given the compound CCCC(=O)OC/C=C(/C)CCC=C(C)C [Neryl butyrate] , what is its reported MIC?
## Result 50

## Task Returns the measured MIC for the input compound. Input: CC(=O)CC/C=C(\C)CCC=C(C)C
## Result 0.5

## Task For CCCCCC(=O)OCCc1ccccc1 [Phenethyl hexanoate] , what is its reported MIC?
## Result 10

## Task Endpoint output: MIC of CC=CCCCCCCCC(=O)OC [Methyl-9-undecenoate] . Value?
## Result 40

## Task Which measured MIC value corresponds to CCCCCCCCCCCCCO ?
## Result 0.05

## Task Name the recorded MIC for CCCCCCCCCCCC(=O)OCCCC [Butyl laurate] .
## Result 100

----------
tested on: yeast Saccharomyces cerevisiae X2180-1B; experiment: Fungicidal activity / MIC at 50° C. versus 30° C., yeast survival in YEPD broth pH 3.4; format: cell-based; conditions: Saccharomyces cerevisiae; minimum inhibitory concentration, 50° C.; read-out: MIC50
measured_property: MIC (mM)
Report only the number, with the unit mM understood.

## Task # MIC lookup, item CCCCCCCCCCC(=O)OC [Methyl undecanoate]
## Result 50

## Task Returns the measured MIC for the input compound. Input: CCCCCCCCCCOC(=O)CC [Decyl propionate]
## Result 50

## Task I am curious: what MIC value has been reported for CCCCCCCCCCC(=O)OCC [Ethyl undecanoate] ?
## Result 50

The reported numbers originate from patent US6579556B2.
